species on record: Rattus norvegicus; test: DrugMatrix - Regimen: Daily Repeat; assay type: toxicity, organism-based, Sprague-Dawley; design: regimen Daily Repeat, gender Male, age 6-8 weeks; conditions: in vivo, po, 100 mg/kg, 72 h, tissue Blood, route oral GAVAGE, dose level Low, time 3 day, vehicle .5 % CMC
This listing pairs molecules with measured HEMOGLOBIN.
Dear colleague, please return just the value in G/DL, with no unit written.

CC[C@]1(O)CC[C@H]2[C@@H]3CCC4=CCCC[C@@H]4[C@H]3CC[C@@]21C | 14.03

// HEMOGLOBIN lookup, key: CC=Cc1ccc(O)c(OC)c1 [ISOEUGENOL] 13.83

Next entry: Nc1nc2c(c(=O)[nH]1)N(C=O)C(CNc1ccc(C(=O)N[C@@H](CCC(=O)O)C(=O)O)cc1)CN2 (some centres undefined) [LEUCOVORIN] 14.23

# repeat for C#C[C@]1(O)CC[C@H]2[C@@H]3CCC4=Cc5oncc5C[C@]4(C)[C@H]3CC[C@@]21C [DANAZOL] 13.43

* * *

The reader will find reported PLATELET COUNT values listed item by item below.
species on record: Rattus norvegicus; assay: DrugMatrix - Regimen: Daily Repeat; type: toxicity, organism-based, Sprague-Dawley; set-up: regimen Daily Repeat, gender Male, age 6-8 weeks; settings: in vivo, po, 0 mg/kg, 72 h, tissue Blood, route oral GAVAGE, dose level Control, time 3 day, vehicle .5 % CMC
Report only the number, with the unit x10E3/uL understood.

Nc1cccc(Cl)c1 | 1204.5

Read the next record carefully.
Item `CCOC(=O)[C@H](CCc1ccccc1)N[C@@H](C)C(=O)N1Cc2ccccc2C[C@H]1C(=O)O` has what recorded PLATELET COUNT? 1118.17

* * *

Parameter: TOTAL BILIRUBIN. Scope: all listed entries.
organism: Rattus norvegicus; assay: DrugMatrix - Regimen: Daily Repeat; format: toxicity, organism-based, Sprague-Dawley; design: regimen Daily Repeat, gender Male, age 6-8 weeks; details: in vivo, po, 1500 mg/kg, 72 h, tissue Plasma, route oral GAVAGE, dose level High, time 3 day, vehicle .5 % CMC
Number in mg/dL, nothing else.

Record request: TOTAL BILIRUBIN value, item `CCOC(=O)[C@H](CCc1ccccc1)N[C@@H](C)C(=O)N1CCC[C@H]1C(=O)O` 0.27

For `C[C@@H](O)[C@H]1C(=O)N2C(C(=O)O)=C(S[C@@H]3CN[C@H](C(=O)N(C)C)C3)[C@H](C)[C@H]12` then? 0.17

* * *

Below is a list of entries, each paired with its recorded CREATINE PHOSPHOKINASE value.
organism: Rattus norvegicus; test: DrugMatrix - Regimen: Daily Repeat; assay type: toxicity, organism-based, Sprague-Dawley; parameters: regimen Daily Repeat, gender Male, age 6-8 weeks; settings: in vivo, po, 0 mg/kg, 72 h, tissue Plasma, route oral GAVAGE, dose level Control, time 3 day, […]
Report only the number, with the unit u/L understood.

Some solved entries appear below for comparison.
COc1ncnc(NS(=O)(=O)c2ccc(N)cc2)c1OC | 410.33
CC(CCc1ccc(O)cc1)NCCc1ccc(O)c(O)c1 (stereo not given) | 372.67
CC[C@H](C)C(=O)O[C@H]1C[C@H](O)C=C2C=C[C@H](C)[C@H](CC[C@@H](O)C[C@@H](O)CC(=O)O)[C@H]21 | 268.33

What value of CREATINE PHOSPHOKINASE has been reported for the following compound? `CCn1cc(C(=O)O)c(=O)c2cc(F)c(N3CCNCC3)nc21` 659.17

For CN(CCOc1ccc(CC2SC(=O)NC2=O)cc1)c1ccccn1 (stereo not given) then? 268.33
